Molecular target: recombinant human mGluR2 (Homo sapiens (Human), UniProt Q14416)
Sequence (Q14416 19-872): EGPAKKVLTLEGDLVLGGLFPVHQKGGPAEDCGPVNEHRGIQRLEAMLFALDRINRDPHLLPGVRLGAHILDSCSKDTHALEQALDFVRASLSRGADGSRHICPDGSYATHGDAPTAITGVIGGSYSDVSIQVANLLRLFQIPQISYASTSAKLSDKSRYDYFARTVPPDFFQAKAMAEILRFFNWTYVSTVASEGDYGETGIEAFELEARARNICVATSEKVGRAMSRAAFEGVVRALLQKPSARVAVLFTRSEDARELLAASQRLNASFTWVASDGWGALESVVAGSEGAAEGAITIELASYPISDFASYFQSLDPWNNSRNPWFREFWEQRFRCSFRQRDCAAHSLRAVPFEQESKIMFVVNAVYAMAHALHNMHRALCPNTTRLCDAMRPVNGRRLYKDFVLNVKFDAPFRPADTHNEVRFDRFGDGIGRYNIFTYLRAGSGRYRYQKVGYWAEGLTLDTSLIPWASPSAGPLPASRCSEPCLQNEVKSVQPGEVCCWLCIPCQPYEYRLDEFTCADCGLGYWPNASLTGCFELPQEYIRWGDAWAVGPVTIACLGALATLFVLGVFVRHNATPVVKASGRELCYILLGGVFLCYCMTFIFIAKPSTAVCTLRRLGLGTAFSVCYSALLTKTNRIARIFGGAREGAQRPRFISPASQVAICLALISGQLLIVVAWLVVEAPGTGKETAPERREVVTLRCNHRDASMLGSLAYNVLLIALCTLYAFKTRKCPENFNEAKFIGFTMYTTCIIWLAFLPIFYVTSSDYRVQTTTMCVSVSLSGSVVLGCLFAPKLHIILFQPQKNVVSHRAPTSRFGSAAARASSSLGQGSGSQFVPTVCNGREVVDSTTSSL
Test: FLIPR Ca2+ mobilization assay, potentiation of glutamate response
Conditions: CHO dhfr- cells expressing human mGluR2 and Gα16; potentiation with EC20 glutamate (900 nM); read-out: hFLIPR pot. EC50
pEC50: −log10 of the molar value.

| COMPOUND | TGT | pEC50 |
| --- | --- | --- |
| Cn1c(=O)n(CC(C)(C)C)c2ccc(C3CCC(C)(C)C(NC(=O)c4ccc(OC(F)(F)F)cc4)C3)nc21 (stereo not shown) | recombinant human mGluR2 (Homo sapiens (Human), UniProt Q14416) | 6.01 |
| Cn1c(=O)n(CC2CC2(F)F)c2ccc(C3=CC4CN(C(=O)c5ncco5)CC4C3)nc21 (stereo not shown) | recombinant human mGluR2 (Homo sapiens (Human), UniProt Q14416) | 6.91 |
| Cn1cnc(S(=O)(=O)N2CCCC(c3ccc4c(n3)n(C)c(=O)n4CC(C)(C)C)C2)c1 (stereo not shown) | recombinant human mGluR2 (Homo sapiens (Human), UniProt Q14416) | 6.02 |
| Cn1c(=O)n(CC(C)(C)C)c2ccc(C3=CC4CCC3CN4C(=O)c3ncco3)nc21 (stereo not shown) | recombinant human mGluR2 (Homo sapiens (Human), UniProt Q14416) | 7.64 |

* * *

Molecular target: recombinant human mGluR2 (Homo sapiens (Human), UniProt Q14416)
Test: FLIPR Ca2+ mobilization assay, potentiation of glutamate response
Conditions: CHO dhfr- cells expressing human mGluR2 and Gα16; potentiation with EC20 glutamate (900 nM); read-out: hFLIPR pot. EC50
pEC50: −log10 of the molar value.
Let's look at some compounds and their measured pEC50.

| COMPOUND | pEC50 |
| --- | --- |
| Cn1c(=O)n(CC(C)(C)C)c2ccc(C3CCC(C)(C)C(NC(=O)CCn4cncn4)C3)nc21 (stereo not drawn) | 5.66 |
| CN1c2nc(C3=CCN(C(=O)c4ccon4)C3)ccc2N(CC2CC2(F)F)S1(=O)=O (stereo not drawn) | 6.75 |
| CN1c2nc(C3=CC4CN(C(=O)C(C)(C)O)CC4C3)ccc2N(CC2CC2(F)F)S1(=O)=O (stereo not drawn) | 7.31 |
| Cn1c(=O)n(CC(C)(C)C)c2ccc(C3=CC4CN(C(=O)C5(O)CCC5)CC4C3)nc21 (stereo not drawn) | 6.87 |
| Cn1c(=O)n(CC(C)(C)C)c2ccc(C3=CCC(NC(=O)C4CCCO4)CC3)nc21 (stereo not drawn) | 6.48 |
| Cn1c(=O)n(CC(C)(C)C)c2ccc(C3=CC4CN(C(=O)C5(O)CCN(C(=O)OC(C)(C)C)C5)CC4C3)nc21 (stereo not drawn) | 6.29 |
| Cn1c(=O)n(CC(C)(C)C)c2ccc(C3=CC4CCC3CN4C(=O)c3csnn3)nc21 (stereo not drawn) | 7.55 |
| Cn1c(=O)n(CC(C)(C)C)c2ccc(C3=CC4CCC3CN4C(=O)Cn3cncn3)nc21 (stereo not drawn) | 7.25 |
| Cn1c(=O)n(CC2CC2(F)F)c2ccc(C3=CC4CCC3CN4C(=O)c3ccon3)nc21 (stereo not drawn) | 7.54 |
| Cn1c(=O)n(CC(C)(C)C)c2ccc(C3CC4CN(C(=O)c5ncc[nH]5)CC4C3)nc21 (stereo not drawn) | 6.41 |
| Cn1c(=O)n(CC(C)(C)C)c2ccc(C3=CC4CCC3CN4C(=O)c3cccnc3)nc21 (stereo not drawn) | 7.00 |
| Cn1cnc(C(=O)NCCCCc2ccc3c(n2)n(C)c(=O)n3CC(C)(C)C)c1 | 5.93 |
| Cn1c(=O)n(CC(C)(C)C)c2ccc(C3=CCC(C(=O)NCc4ncco4)CC3)nc21 (stereo not drawn) | 6.23 |
| Cc1cccc(S(=O)(=O)NC2CC(c3ccc4c(n3)n(C)c(=O)n4CC(C)(C)C)CCC2(C)C)c1 (stereo not drawn) | 6.93 |
| Cn1c(=O)n(CC(C)(C)C)c2ccc(C3=CC4CN(C(=O)CO)CC4C3)nc21 (stereo not drawn) | 6.57 |
| Cn1c(=O)n(CC(C)(C)C)c2ccc(C3=CC4CCC3CN4C(=O)C3CC3)nc21 (stereo not drawn) | 7.19 |
| Cn1c(=O)n(CC(C)(C)C)c2ccc(C3=CC4CN(C(=O)c5ncco5)CC4C3)nc21 (stereo not drawn) | 7.75 |
| CN1c2nc(C3CCCNC3)ccc2N(CC2CC2(F)F)S1(=O)=O (stereo not drawn) | 6.44 |
| CC1C(c2ccc3c(n2)N(C)S(=O)(=O)N3CC2CC2(F)F)C1C(C)(C)O (stereo not drawn) | 7.84 |
| Cn1c(=O)n(CC(C)(C)C)c2ccc(C3CC4CCC3CN4C(=O)c3ccon3)nc21 (stereo not drawn) | 6.49 |
| Cn1c(=O)n(CC(C)(C)C)c2ccc(C3CCC(C)(C)C(NC(=O)c4cnsn4)C3)nc21 (stereo not drawn) | 7.36 |
